From: patent US20210347873A1

Would you kindly list MFI for each of these binders?
Biological target: T1, human BLyS (full length, arginine to histidine at position 132) on CHO-K1 cells (human, UniProt Q9Y275 1-285)
T1 construct: also called hBLyS; CHO-K1 hBLyS
T1 sequence (Q9Y275 whole entry R130H): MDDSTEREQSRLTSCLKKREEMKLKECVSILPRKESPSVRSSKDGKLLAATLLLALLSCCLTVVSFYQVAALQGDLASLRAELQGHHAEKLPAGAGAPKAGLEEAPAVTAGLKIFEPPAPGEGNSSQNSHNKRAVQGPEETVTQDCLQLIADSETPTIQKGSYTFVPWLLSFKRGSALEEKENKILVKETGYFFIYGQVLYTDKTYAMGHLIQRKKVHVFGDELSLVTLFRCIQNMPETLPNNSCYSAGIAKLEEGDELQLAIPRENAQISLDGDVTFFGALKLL
Experiment: flow cytometry, CHO-K1 hBLyS cells, antibody 0.00427 nM
Answers are plain numbers, in MFI.

// solved cases for MFI follow
35E6F7C3 (antibody, V domains shown, Mouse hybridoma monoclonal antibody purified on Protein G) VH: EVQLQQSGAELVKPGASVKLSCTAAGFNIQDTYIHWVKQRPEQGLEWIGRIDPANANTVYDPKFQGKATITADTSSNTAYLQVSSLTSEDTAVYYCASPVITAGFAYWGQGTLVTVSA VL: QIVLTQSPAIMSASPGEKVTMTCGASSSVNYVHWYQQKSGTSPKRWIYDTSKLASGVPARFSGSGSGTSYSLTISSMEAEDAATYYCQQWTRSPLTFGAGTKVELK    39.2
L1D12 (antibody, V domains shown, From a human naive scFv phage library; also called human BLyS antibody L1D12; LID12) VH: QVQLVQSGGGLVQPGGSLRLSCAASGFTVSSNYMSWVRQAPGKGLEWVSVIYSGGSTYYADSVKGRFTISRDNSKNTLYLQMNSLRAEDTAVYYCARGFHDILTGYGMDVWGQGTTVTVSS VL: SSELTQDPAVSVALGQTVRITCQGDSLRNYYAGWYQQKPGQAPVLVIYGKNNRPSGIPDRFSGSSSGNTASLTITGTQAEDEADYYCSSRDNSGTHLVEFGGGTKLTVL    54.4
L9G7 (antibody, V domains shown, From a human naive scFv phage library; also called human BLyS antibody L9G7) VH: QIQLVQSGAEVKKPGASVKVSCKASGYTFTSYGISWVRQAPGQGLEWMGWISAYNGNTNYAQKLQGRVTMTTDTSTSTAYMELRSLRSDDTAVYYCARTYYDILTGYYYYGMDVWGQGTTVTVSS VL: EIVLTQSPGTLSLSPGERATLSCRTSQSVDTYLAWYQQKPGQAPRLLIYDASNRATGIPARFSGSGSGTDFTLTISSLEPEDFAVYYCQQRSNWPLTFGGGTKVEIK    51.6
89A2G5E7 (antibody, V domains shown, Mouse hybridoma monoclonal antibody purified on Protein G) VH: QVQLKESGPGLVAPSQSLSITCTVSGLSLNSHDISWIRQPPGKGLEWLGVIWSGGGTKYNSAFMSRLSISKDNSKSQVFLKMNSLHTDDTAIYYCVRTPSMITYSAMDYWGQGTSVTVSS VL: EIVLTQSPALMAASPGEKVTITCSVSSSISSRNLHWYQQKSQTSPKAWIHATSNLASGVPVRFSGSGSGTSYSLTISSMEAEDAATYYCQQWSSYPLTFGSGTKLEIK    37

Proceeding to the next binder to report its MFI.
Per the records, this binder ( 111D10D6G3 (antibody, V domains shown, Mouse hybridoma monoclonal antibody purified on Protein G) VH: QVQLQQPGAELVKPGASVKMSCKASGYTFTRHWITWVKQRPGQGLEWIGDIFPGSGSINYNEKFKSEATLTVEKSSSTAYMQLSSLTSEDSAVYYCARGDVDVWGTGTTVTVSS VL: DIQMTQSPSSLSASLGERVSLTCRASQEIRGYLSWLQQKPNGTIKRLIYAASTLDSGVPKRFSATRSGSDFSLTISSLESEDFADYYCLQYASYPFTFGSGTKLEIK ) has MFI equal to 41.2
